- TARGET_UNDER_TEST: aryl hydrocarbon receptor (AhR) (Homo sapiens, UniProt P35869)
- Construct: DRE-Luc HepG2 cells subcultured in a 225 cm^2 flask; endogenous in cells
- RUN_DESCRIPTION: AhR reporter gene assay (aryl hydrocarbon receptor antagonist activity, DRE-Luc HepG2 cells, TCDD-stimulated luciferase)
pIC50: −log10 of the molar value.
Parameter threshold = 8. Response is yes (1) when pIC50 meets or exceeds it, else no (0).

- Cc1cncc(-c2nc(NCCc3c[nH]c4ccccc34)c3nc4n(c3n2)C(C)(C)CS4)c1: no (0)
- CC1(C)COc2nc3c(NCCc4ccc(O)c(-c5cccc(C(F)(F)F)c5)c4)nc(-c4cncc(F)c4)nc3n21: yes (1)
- C[C@@H]1CSc2nc3c(NCCc4ccc(O)c(-c5ccccc5F)c4)nc(-c4cncc(F)c4)nc3n21: yes (1)
- CC1(C)COc2nc3c(NCCc4c[nH]c5ccccc45)nc(-c4cccnc4)nc3n21: no (0)

---

Listing of entries alongside the reported pIC50.
- TARGET_UNDER_TEST: aryl hydrocarbon receptor (AhR) (Homo sapiens, UniProt P35869)
- Construct: DRE-Luc HepG2 cells subcultured in a 225 cm^2 flask; endogenous in cells
- Sequence (P35869 11-848): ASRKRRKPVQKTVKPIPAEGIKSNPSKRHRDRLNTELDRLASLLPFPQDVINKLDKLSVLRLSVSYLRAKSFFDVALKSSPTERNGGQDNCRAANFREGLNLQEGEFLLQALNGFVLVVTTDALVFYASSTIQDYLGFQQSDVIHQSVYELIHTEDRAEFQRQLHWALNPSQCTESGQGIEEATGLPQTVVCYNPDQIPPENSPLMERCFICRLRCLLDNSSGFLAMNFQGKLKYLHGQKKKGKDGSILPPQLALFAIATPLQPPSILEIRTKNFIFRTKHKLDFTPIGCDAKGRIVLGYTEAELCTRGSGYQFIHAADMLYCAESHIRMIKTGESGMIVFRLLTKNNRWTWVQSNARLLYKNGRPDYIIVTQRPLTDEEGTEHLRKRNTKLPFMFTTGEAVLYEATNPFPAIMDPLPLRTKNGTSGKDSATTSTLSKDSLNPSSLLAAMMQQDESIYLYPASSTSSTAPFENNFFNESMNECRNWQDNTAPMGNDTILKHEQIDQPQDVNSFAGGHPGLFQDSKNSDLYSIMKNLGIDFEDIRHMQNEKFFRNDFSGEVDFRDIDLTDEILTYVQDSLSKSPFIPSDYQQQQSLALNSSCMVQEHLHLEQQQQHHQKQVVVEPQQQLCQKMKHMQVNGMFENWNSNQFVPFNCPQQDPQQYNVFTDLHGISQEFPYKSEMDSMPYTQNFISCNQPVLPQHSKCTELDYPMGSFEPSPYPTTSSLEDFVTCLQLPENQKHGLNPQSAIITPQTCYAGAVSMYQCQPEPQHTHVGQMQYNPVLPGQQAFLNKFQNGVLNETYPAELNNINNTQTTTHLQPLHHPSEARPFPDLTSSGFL
- RUN_DESCRIPTION: AhR reporter gene assay (aryl hydrocarbon receptor antagonist activity, DRE-Luc HepG2 cells, TCDD-stimulated luciferase)
pIC50: −log10 of the molar value.
QUANTITY_NAME: pIC50

- CC1(C)CSc2nc3c(NCCc4ccc(O)c(-c5ccccc5F)c4)nc(-c4cncc(C#N)c4)nc3n21: 9.31
- CC1(C)COc2nc3c(NCCc4ccc(O)c(-c5c(F)cccc5F)c4)nc(-c4cncc(C#N)c4)nc3n21: 7.96
- CC1(C)COc2nc3c(NCCc4ccc(O)c(-c5cc(F)cc(C#N)c5)c4)nc(-c4cncc(F)c4)nc3n21: 7.89
- Cc1cccc(-c2cc(CCNc3nc(-c4cncc(F)c4)nc4c3nc3n4C(C)(C)CO3)ccc2O)c1: 7.96
- CC1(C)CSc2nc3c(NCCc4ccc(O)c(-c5cccc(F)c5)c4)nc(-c4cncc(C#N)c4)nc3n21: 9.28
- C[C@@H]1CSc2nc3c(NCCc4ccc(O)c(-c5ccccc5)c4)nc(-c4cncc(C#N)c4)nc3n21: 9.15
- CC1(C)CSc2nc3c(NCCc4ccc(O)cc4)nc(-c4cncc(F)c4)nc3n21: 7.72
- Cc1cncc(-c2nc(NCCc3ccc(O)c(-c4ccc(F)cc4)c3)c3nc4n(c3n2)C(C)(C)CO4)c1: 8.36
- CC1(C)COc2nc3c(NCCc4ccc(O)c(-c5cccnc5)c4)nc(-c4cncc(F)c4)nc3n21: 7.54
- Cc1cncc(-c2cc(CCNc3nc(-c4cncc(F)c4)nc4c3nc3n4C(C)(C)CS3)ccc2O)c1: 8.14
- Cc1cncc(-c2cc(CCNc3nc(-c4cncc(F)c4)nc4c3nc3n4[C@H](C)CS3)ccc2O)c1: 8.33
- CC1(C)COc2nc3c(NCCc4ccc(O)c(-c5cccc(S(C)(=O)=O)c5)c4)nc(-c4cncc(F)c4)nc3n21: 8.41
- CC1(C)COc2nc3c(NCCc4c[nH]c5ccccc45)nc(-c4cccc(F)c4F)nc3n21: 7.68
- CC1(C)COc2nc3c(NCCc4ccc(O)c(-c5cccc(C#N)c5)c4)nc(-c4ccc5nccn5c4)nc3n21: 7.77
- CC1(C)COc2nc3c(NCCc4ccc(O)c(-c5ccc(C#N)cc5)c4)nc(-c4cncc(F)c4)nc3n21: 8.16

Ref: patent US11932657B2
